From: patent US20140348834A1

target: T1, human IL-17A (human, UniProt Q16552 24-155); experiment: hIL17A ELISA
T1 construct: Recombinant; biotinylated in the ELISA; also called hIL-17; hIL17A
T1 sequence (Q16552 24-155): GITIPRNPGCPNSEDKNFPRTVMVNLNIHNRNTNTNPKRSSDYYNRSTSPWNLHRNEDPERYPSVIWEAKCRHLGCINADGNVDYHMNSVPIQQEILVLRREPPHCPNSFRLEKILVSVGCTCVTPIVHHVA
measure: pEC50
Worth noting: pEC50 values are minus log10 of concentrations stated in mol/L.

Give me measured pEC50, please, for this binder: IL17-h5C5.20 (antibody, V domains shown, IgG; constant regions not specified) VH: EVQLVQSGAEVKKPGASVKVSCKASGYTFTDYEFHWVRQAPGQGLEWMGVIHPGNGGTAYNQNFRDRVTITADKSTSTAYMELSSLRSEDTAVYYCARFLTYEGYFDYWGQGTLVTVSS VL: NIVMTQSPATLSVSPGERATLSCKASQSVSIDVGWFQQKPGQSPRLLIYHASNRYTGVPARFSGSGSGTDFTLTISSLQPEDFAVYFCQQDYSSPYTFGQGTKLEIKR
10.52

Give me measured pEC50, please, for this binder: IL17-h5C5.12 (antibody, V domains shown, IgG; constant regions not specified) VH: EVQLVQSGAEVKKPGASVKVSCKASGYTFTDYEFHWVRQAPGQGLEWIGVIHPGNGGTAYNQNFRDRATLTADKSTSTAYMELSSLRSEDTAVYYCTRFLTYEGYFDYWGQGTLVTVSS VL: EIVMTQSPATLSVSPGERATLSCKASQSVSIDVGWYQQKPGQAPRLLIYHASNRYTGIPARFSGSGSGTDFTLTISSLQPEDFAVYYCQQDYSSPYTFGQGTKLEIKR
9.64

Turning now to a further record.
Give me measured pEC50, please, for this binder: IL17-h5C5.3 (antibody, V domains shown, IgG; constant regions not specified) VH: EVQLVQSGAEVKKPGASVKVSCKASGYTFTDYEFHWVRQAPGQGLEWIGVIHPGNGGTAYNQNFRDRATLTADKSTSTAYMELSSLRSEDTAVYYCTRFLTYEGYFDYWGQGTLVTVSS VL: NIVMTQTPKFLLVSPGDRVTITCKASQSVSIDVGWFQQKPGQSPKLLIYHASNRYTGVPDRFTGSGYGTDFTFTVNTVQAEDLAVYFCQQDYSSPYTFGGGTKLELKR
8.86
